Listing of entries alongside the reported %Inh.
# System: LATS1
# CONDITIONS: concentration: 1 μM, replicates: in singlicate; n = 1;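 further: KINOMEscan kinase panel screen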

- COMPOUND: "CC(C)c1nc(-c2cccc(NS(=O)(=O)c3c(F)cccc3F)c2F)c(-c2ccnc(Nc3ccc(N4CCOCC4)nc3)n2)s1"
  %Inh / %: 0
- COMPOUND: "Cc1ccc(C)c(NC(=O)NC2CCN(c3ccnc(Nc4ccc(F)cc4)n3)C2)c1 (stereo not shown)"
  %Inh / %: 12
- COMPOUND: "O=C(Nc1cccc(-c2nn3ncccc3c2-c2ccnc(Nc3ccccc3)n2)c1)c1c(F)cccc1F"
  %Inh / %: 0
- COMPOUND: "O=c1[nH]cc(-c2ccc(N3CCOCC3)cc2)c2sc(-c3cn[nH]c3)cc12"
  %Inh / %: 0
- COMPOUND: "COc1cccc(NC(=O)NC2CCN(c3ccnc(Nc4cc(OC)c(OC)c(OC)c4)n3)C2)c1 (stereo not shown)"
  %Inh / %: 0
- COMPOUND: "Cn1cc(-c2ccc3c(c2)CCN3C(=O)Cc2cccc(Cl)c2)c2c(N)ncnc21"
  %Inh / %: 0
- COMPOUND: "Cl.Cl.NCC(NCc1ccc(-c2ccnc3[nH]ccc23)s1)c1ccccc1 (stereo not shown)"
  %Inh / %: 62
- COMPOUND: "COC(=O)Nc1nc2cc(Oc3ccc(NC(=O)Nc4cc(C(F)(F)F)ccc4F)cn3)ccc2[nH]1.Cl.Cl"
  %Inh / %: 0
- COMPOUND: "NCCCC(NC(=O)c1cc(Br)c(-c2ccnc3[nH]ccc23)s1)c1ccccc1.O=C(O)C(F)(F)F.O=C(O)C(F)(F)F (stereo not shown)"
  %Inh / %: 66
- COMPOUND: "Cn1cc(-c2[nH]c3cc(NC(=O)[C@H](N)C4CCCCC4)cc4c3c2C=NNC4=O)cn1"
  %Inh / %: 90.4
- COMPOUND: "CN(C)Cc1ccc(-c2ccc3c(Nc4ccc(Oc5ccccn5)cc4)ccnc3c2)o1"
  %Inh / %: 0
- COMPOUND: "Nc1ncnc2c1nc(-c1ccccc1)n2-c1ccccc1"
  %Inh / %: 35
- COMPOUND: "Nc1ncc(-c2cccnc2)c2scc(-c3ccc4c(c3)CCN4C(=O)Cc3ccccc3)c12"
  %Inh / %: 0

---

# System: MLK3
# CONDITIONS: concentration: 1 μM, replicates: in singlicate; n = 1
Listing of entries alongside the reported %Inh.

- COMPOUND: "Nc1n[nH]c2cnc(-c3ccccc3)cc12"
  %Inh [%]: 0
- COMPOUND: "Fc1ccc(-c2ncn(C3CCNCC3)c2-c2ccnc(Oc3ccc(-c4ccccc4)cc3)n2)cc1"
  %Inh [%]: 0
- COMPOUND: "C[C@@H](Oc1cc(-n2cnc3cc(-c4ccnc(NCCS(C)(=O)=O)c4)ccc32)sc1C(N)=O)c1ccccc1Cl"
  %Inh [%]: 42
- COMPOUND: "O=C(Nc1cccc(-c2nn3ccccc3c2-c2ccnc(Nc3cccc(F)c3)n2)c1)c1c(F)ccc(F)c1Cl"
  %Inh [%]: 39
- COMPOUND: "COc1cc2c(cc1OCCN1CCNCC1)ncc1c3ccc(C#N)cc3[nH]c21"
  %Inh [%]: 0
- COMPOUND: "CCS(=O)(=O)c1ccc(OC)c(Nc2nccc(-c3c(-c4cccc(NC(=O)c5c(F)cccc5F)c4)nn4ncccc34)n2)c1"
  %Inh [%]: 0
- COMPOUND: "Cl.Cl.NCC(NCc1ccc(-c2ccnc3[nH]ccc23)s1)c1ccccc1 (centres unmarked)"
  %Inh [%]: 7
- COMPOUND: "O=C(Nc1cccc(-c2nn3ncccc3c2-c2ccnc(Nc3ccccc3)n2)c1)c1c(F)cccc1F"
  %Inh [%]: 11
